Give measured Post-emerge Herbicidal Activity CASOB (phytotoxicity rating) for each item. Keep answers brief.
Test system: sicklepod (Cassia obtusifolia, CASOB)
Experiment: Post-emerge test, greenhouse herbicide activity screening
Type: in vivo
Conditions: 63 g ai/ha; post-emerge; 14 days after application; rating scale 0-100
Answers are plain numbers.

Solved entries (count: 3):
molecule	measured.number
COc1c(Cl)cc(F)c(-n2c(=O)cc(C(F)(F)F)n(C)c2=O)c1NNC(=O)c1ccc(F)cc1F [15-4]	50
COc1c(Cl)cc(F)c(-n2c(=O)cc(C(F)(F)F)n(C)c2=O)c1SCCO [17-5]	10
COc1c(Cl)cc(F)c(-n2c(=O)cc(C(F)(F)F)n(C)c2=O)c1NNC(=O)c1ccccc1 [15-3]	70

Let us examine a further case.
Prompt: Identify the reported Post-emerge Herbicidal Activity CASOB (phytotoxicity rating) for the following entry. CCOC(=O)C(Cl)Cc1c(OC)c(Cl)cc(F)c1-n1nc(C(F)(F)F)n(C)c1=O (stereo not shown) [14-61]
Completion: 0

====

Test system: barnyardgrass (Echinochloa crus-galli, ECHCG)
Assay: Pre-emerge test, greenhouse herbicide activity screening
Assay type: in vivo
Details: pre-emerge, 63 g ai/ha, 14 days after application, rating scale 0-100
reported.endpoint: phytotoxicity rating ECHCG

Solved entries (count: 3):
compound	phytotoxicity rating ECHCG
COc1c(Cl)cc(F)c(-n2c(=O)cc(C(F)(F)F)n(C)c2=O)c1SC [Compound 17-1]	0
COc1c(Cl)cc(F)c(-n2c(=O)cc(C(F)(F)F)n(C)c2=O)c1NNC(=O)Nc1ccc(F)cc1F [15-8]	0
CCCOC(=O)C(Cl)Cc1c(OCC)c(Cl)cc(F)c1-n1c(=O)cc(C(F)(F)F)n(C)c1=O (stereo not shown) [14-65]	0

Look at each compound and report its phytotoxicity rating ECHCG.
1. COc1c(Cl)cc(F)c(-n2c(=O)cc(C(F)(F)F)n(C)c2=O)c1NN=CCc1ccccc1 [15-15]
2. Cn1c(C(F)(F)F)cc(=O)n(-c2ccc(Cl)cc2/C=C/c2ccc3ccccc3c2)c1=O [14-59]
3. COc1c(Cl)cc(F)c(-n2c(=O)cc(C(F)(F)F)n(C)c2=O)c1CC(C)(Cl)C(=O)OCCSC (stereo not shown) [14-48]
4. COc1c(Cl)cc(F)c(-n2c(=O)cc(C(F)(F)F)n(C)c2=O)c1NN [Compound 15-1]
5. COc1c(Cl)cc(F)c(-n2c(=O)cc(C(F)(F)F)n(C)c2=O)c1NN=CC(C)c1ccccc1 (stereo not shown) [15-17]
6. COc1cc(Cl)cc(Cl)c1-n1c(=O)cc(C(F)(F)F)n(C)c1=O [16-2]
7. CCOC(=O)C(Cl)(CC(=O)OC)Cc1c(OC)c(Cl)cc(F)c1-n1c(=O)cc(C(F)(F)F)n(C)c1=O (stereo not shown) [14-50]
8. CCOc1c(Cl)cc(F)c(-n2c(=O)cc(C(F)(F)F)n(C)c2=O)c1Cl [14-62]

Completion:
1. 100
2. 0
3. 0
4. 91
5. 100
6. 0
7. 0
8. 0

Look at each compound and report its phytotoxicity rating ECHCG.
1. CCOC(=O)C(Cl)Cc1c(OC)c(Cl)cc(F)c1-c1nn(C)c(C(F)(F)F)c1Cl (stereo not shown) [14-56]
2. CCOC(=O)N(C)C(=O)NNc1c(OC)c(Cl)cc(F)c1-n1c(=O)cc(C(F)(F)F)n(C)c1=O [15-9]

Completion:
1. 0
2. 99

Source listed as patent US6355799B1.
